Experiment: NCI Yeast Anticancer Drug Screen. Data for the mlh1 rad18 strain (AID 175)
Conditions: S. cerevisiae mlh1 rad18 strain growth inhibition; at 50.0 µM (retest, dose inferred, filed as 5.0); stronger effect = higher value
This is part of a sample that, as a whole, favours compounds with a hit. Of some 79,000 tested, about 15% had one in any assay. Activity calls are given as the source filed them. Cut-off read from the data, not from the text of the source: active = growth inhibition above about 70%; inactive = the rest.
Each entry below carries its reported growth inhibition.

molecule=CC(=O)NC1=C(Sc2ccc([N+](=O)[O-])cc2)C(=O)c2ccccc2C1=O reportedvalue="99% (active)"
molecule=O=C(O)/C(=C/c1ccccc1)c1ccc2ccccc2c1Br reportedvalue="99% (active)"
molecule=Fc1ccc(NC(=S)SCc2ccccc2)cc1F reportedvalue="97% (active)"

Task item: Requested read-out: growth inhibition. Entry: Nc1nc(-c2ccccc2)nc(Cl)c1I
Reply: 21% (inactive)

Task item: Requested read-out: growth inhibition. Entry: COc1ccc2c(c1)c(=O)c1c(NCCN(C)C)ccc3nnn2c31
Reply: -12% (inactive)

Task item: Requested read-out: growth inhibition. Entry: C[C@H](CCC(=O)O)[C@H]1CC[C@H]2[C@@H]3CC[C@@H]4C[C@H](O)CC[C@]4(C)[C@H]3C[C@H](O)[C@]12C
Reply: 98% (active)

Task item: Requested read-out: growth inhibition. Entry: CCOC(=O)C(F)C(Br)C(=O)OCC (centres undefined)
Reply: 98% (active)

Task item: Requested read-out: growth inhibition. Entry: O=c1cccccc1[O-].O=c1cccccc1[O-].O=c1cccccc1[O-].[Ce+3]
Reply: 26% (inactive)

Task item: Requested read-out: growth inhibition. Entry: Cc1c(-c2ccc(C(=N)N)cc2)oc(-c2ccc(C(=N)N)cc2)c1C
Reply: 97% (active)

Data credit: PubChem BioAssay (NCI)
